Provenance of the data: ChEMBL document CHEMBL1201862

Answer each item with its documented GI50.
All answers are understood in µM, so give the number only.

Q) Please respond with reported GI50 (system HCT-15) for "Oc1cc2cc(-c3ccccc3)[nH]c2c2ccccc12" .
A) 27.1

Q) Please respond with reported GI50 (system HCT-15) for CCCCCCCCC[C@@H]1C[C@@H]2CCC3C(C(=O)OC)=C(C)N=C(N1)N32 (stereo partly specified) .
A) 16.5

Q) Please respond with reported GI50 (system HCT-15) for "COc1cc(/C=C\c2ccc(Br)cc2)cc(OC)c1OC" .
A) 0.00333

---

system: COLO 205; experiment: NCI tumour cell line growth inhibition, 48 h
Active and inactive are the calls of the source. Rule as the data show it: active = GI50 up to about 1.1 µM and inactive = higher.
Pick one: active, inactive

Q) How did this test come out for "CCOC(=O)c1csc(NC(=O)CN2CCOCC2)n1" ?
A) inactive

Q) How did this test come out for "CC(=O)Nc1ccc2c(C)c3c4ccccc4n(C)c3nc2n1" ?
A) inactive

Q) How did this test come out for "N#Cc1c(-c2ccc([N+](=O)[O-])cc2)cc(-c2ccc(Nc3ccnc4cc(C(F)(F)F)ccc34)cc2)nc1N" ?
A) inactive

Q) How did this test come out for CC1=C[C@H]2c3c([nH]c4ccccc34)C(c3c[nH]c4ccccc34)[C@H]2CC1 (stereo partly specified) ?
A) inactive

Q) How did this test come out for Cc1cc(C)c(C2CC(O)C(CO)O2)cc1C (stereo unspecified) ?
A) inactive

Q) How did this test come out for "CCOS(C)(=O)=O" ?
A) inactive

Q) How did this test come out for "COc1cc(/C=C\c2ccc(Br)cc2)cc(OC)c1OC" ?
A) active

Q) How did this test come out for "Nc1cccc2c1C(=O)c1cccc(N)c1C2=O" ?
A) inactive

Q) How did this test come out for CC(O)C(NC(=O)C(CS)NC(=O)C(CO)NC(=O)C(CCCCN)NC(=O)C(Cc1c[nH]c2ccccc12)NC(=O)C(Cc1ccc(O)cc1)NC(=O)C(CS)NC(=O)C(N)Cc1ccccc1)C(N)=O (stereo unspecified) ?
A) inactive

Q) How did this test come out for "O=C(O)CCNC(=O)c1cc(N(CCBr)CCBr)c([N+](=O)[O-])cc1[N+](=O)[O-]" ?
A) inactive

Q) How did this test come out for "O=C(O)CCc1nc2ccccc2[nH]1" ?
A) inactive

Q) How did this test come out for "Cc1ccc(Nc2nc(=O)[nH]c(=O)[nH]2)cc1N" ?
A) inactive

Q) How did this test come out for "CCc1nc(N)nc(N)c1-c1ccc([N+](=O)[O-])c(Cl)c1" ?
A) inactive

Q) How did this test come out for "CCC1=CC2CN3Cn4c(c(COCc5c6n(c7ccccc57)CN5CC7C=C(CC)C5C6(C(=O)OC)C7)c5ccccc54)C(C(=O)OC)(C2)C13" ?
A) inactive

Q) How did this test come out for "O=C(O)/C=c1/c2ccccc2n2nc3ccccc3c12" ?
A) inactive

Q) How did this test come out for "O=C1C=CC2(C=C1)C[C@H](NC(=O)C(F)(F)F)C(=O)O2" ?
A) inactive

Q) How did this test come out for "O=CCCCCCOCc1ccccc1" ?
A) inactive

Q) How did this test come out for "O=C1c2ccoc2C(=O)c2oc(=O)ccc21" ?
A) inactive

Q) How did this test come out for CC1=C(O)C(=O)C2C(=O)C1C(C)C2c1ccc(C)cc1 (stereo unspecified) ?
A) inactive

Q) How did this test come out for "Cc1ccc2c(c1)nc(N)n[n+]2[O-]" ?
A) inactive

Q) How did this test come out for "c1ccc2c(Cc3c[nH]c4ccccc34)c[nH]c2c1" ?
A) inactive

---

tested on: M14; experiment: NCI tumour cell line growth inhibition, 48 h
Calls of active or inactive are those of the source. Rule as the data show it: active = GI50 up to about 1.1 µM and inactive = higher.
Pick one: active, inactive

Q) How did this test come out for "COc1cc(CNC(=S)CCCCCCCCCCC(C)C)ccc1O" ?
A) inactive

Q) How did this test come out for "O=C(O)/C=C\C(=O)Nc1ccccn1" ?
A) inactive

Q) How did this test come out for "COC(=O)Cc1nn2c(nc1=O)sc1ccc3ccccc3c12" ?
A) inactive

Q) How did this test come out for "O=C1C=CC(=O)c2nc3c(cc21)CCC3" ?
A) inactive

Q) How did this test come out for CCCC(=O)NC1CCc2cc(OC)c(OC)c(OC)c2-c2ccc(OC)c(=O)cc21 (stereo unspecified) ?
A) active

Q) How did this test come out for "O=C1/C(=C/c2ccc(O)c(O)c2)CC/C1=C\c1ccc(O)c(O)c1" ?
A) inactive

Q) How did this test come out for "COc1ccc([N+](=O)[O-])c2c(NCCCN(C)C)c(C)c(C)nc12" ?
A) inactive

Q) How did this test come out for "O=C1C=CC2(C=C1)C[C@H](NC(=O)C(F)(F)F)C(=O)O2" ?
A) inactive

Q) How did this test come out for "O=C(Nc1sccc1S(=O)(=O)c1ccc(Cl)cc1)c1ccc(F)cc1F" ?
A) inactive

Q) How did this test come out for "CCOC(=O)c1cc(/C=C/C(C)=C/C(=O)OC)oc1C" ?
A) inactive

Q) How did this test come out for "N#Cc1c(-c2ccc([N+](=O)[O-])cc2)cc(-c2ccc(Nc3ccnc4cc(C(F)(F)F)ccc34)cc2)nc1N" ?
A) inactive

---

test system: Hs-578T; experiment: NCI tumour cell line growth inhibition, 48 h
The source made the active and inactive calls. No stated cut-off is given here; in the data, active = GI50 up to about 1.1 µM and inactive = higher.
Answer each item with its documented GI50.

Q) Look up and state reported GI50 for NCCO/C=C/C(N)C(=O)O (centres undefined) [AMINOETHOXYVINYLGLYCINE]
A) > 100 µM (inactive)

Q) Look up and state reported GI50 for C=C(C)C1CCC2(CO)C(O)CC3(C)C(CCC4C5(C)CCC(O)C(C)(C)C5CCC43C)C12 (centres undefined)
A) 7.76 µM (inactive)

Q) Look up and state reported GI50 for CCCCC1c2c([nH]c3ccccc23)C2C(=O)N(c3ccc(OC)cc3)C(=O)C2C1CCC (centres undefined)
A) 1.87 µM (inactive)

Q) Look up and state reported GI50 for c1ccc2c(Cc3c[nH]c4ccccc34)c[nH]c2c1 [ARUNDINE]
A) 41.3 µM (inactive)

---

system: SF-295; assay: NCI tumour cell line growth inhibition, 48 h
Activity calls are given as the source filed them. Rule as the data show it: active = GI50 up to about 1.1 µM and inactive = higher.
readoutType: GI50

Q) Look up and state reported GI50 for CCCCC1c2c([nH]c3ccccc23)C2C(=O)N(c3ccc(OC)cc3)C(=O)C2C1CCC (stereo not given)
A) > 10 µM (inactive)

Q) Look up and state reported GI50 for "CC1(C)[C@@H]2CC[C@@]1(C)CN(CCC[N+](C)(C)C)C2"
A) > 100 µM (inactive)

Q) Look up and state reported GI50 for "Cc1cc(C)n(-c2nc(C)c(CCO)c(=O)[nH]2)n1"
A) > 100 µM (inactive)

Q) Look up and state reported GI50 for "O=C(/C=C/c1ccc[nH]1)c1ccccc1"
A) > 100 µM (inactive)

Q) Look up and state reported GI50 for CC(=O)OC[C@H]1O[C@@H](O[C@H]2[C@H](OC(C)=O)C=CO[C@@H]2COC(C)=O)C(OC(C)=O)[C@H]2OC(C)(C)O[C@H]21 (stereo not given in full)
A) > 100 µM (inactive)

Q) Look up and state reported GI50 for "COc1cc2c(cc1OC)-c1cc3cc(OC)c(OC)cc3n1CC2"
A) 13.2 µM (inactive)

Q) Look up and state reported GI50 for COc1ccccc1C1c2cc3c(cc2OC(N2CCOCC2)C1C)OCO3 (stereo not given)
A) 13.5 µM (inactive)

Q) Look up and state reported GI50 for C[C@H]1C=C2[C@@H]3CC(C)(C(=O)O)CC[C@]3(C)CC[C@]2(C)[C@]2(C)CC[C@H]3C(C)(C)[C@@H](OC(=O)c4cccc5c(=O)c6ccccc6[nH]c45)CC[C@]3(C)[C@@H]12 (stereo not given in full)
A) > 100 µM (inactive)

Q) Look up and state reported GI50 for O=C(OC1C=C=CS(=O)(=O)CC#C/C=C\1)c1cnc2ccccc2n1 (stereo not given)
A) > 100 µM (inactive)

Q) Look up and state reported GI50 for "[O-][S+]1Nc2c(Cl)cc(Cl)c3c(Cl)cc(Cl)c(c23)N1"
A) 53.1 µM (inactive)

Q) Look up and state reported GI50 for "N#Cc1c(-c2ccco2)cc(-c2ccccc2)nc1O"
A) > 100 µM (inactive)

Q) Look up and state reported GI50 for CC1OC(OC2C(O[C@H]3CC[C@@]4(C)C(=CC[C@H]5[C@@H]6C[C@@H]7O[C@]8(CC[C@@H](C)CO8)[C@@H](C)[C@@H]7[C@@]6(C)CC[C@@H]54)C3)OC(CO)C(O)C2OC2OC(CO)C(O)C(O)C2O)C(O)C(O)C1O (stereo not given in full)
A) 2.14 µM (inactive)

Q) Look up and state reported GI50 for "O=C(O)CSCC(=O)Nc1ccc2cccc3c2c1CC3"
A) > 100 µM (inactive)

Q) Look up and state reported GI50 for "S=C(Nc1ccccc1)c1ccc(CN2CCCCC2)s1"
A) 18.5 µM (inactive)

Q) Look up and state reported GI50 for "O=c1cn[nH]c(=S)n1/N=C/c1c[nH]c2ccccc12"
A) > 100 µM (inactive)

Q) Look up and state reported GI50 for CC(C)=CC1C(COC(=O)c2cc3c(cc2Cl)OCO3)C1(C)C (stereo not given)
A) 34.4 µM (inactive)

Q) Look up and state reported GI50 for "CCOC(=O)C(=CNC(=S)N/N=C1\C(=O)Nc2ccccc21)C(=O)OCC"
A) > 100 µM (inactive)

Q) Look up and state reported GI50 for "COc1ccc2c(c1)[n+]([O-])c(-c1nc3ccccc3s1)c(N)[n+]2[O-]"
A) > 100 µM (inactive)

Q) Look up and state reported GI50 for "Cc1nc(-n2nc(-c3ccccc3)cc2-c2ccccc2)sc1C(/C=C/c1ccc([N+](=O)[O-])cc1)=N/NC(=O)c1ccncc1"
A) 29 µM (inactive)

Q) Look up and state reported GI50 for "CCOC(=O)/C(=C\c1ccccc1)C(=O)O"
A) > 100 µM (inactive)
